# target: HLA-B*0702 on HLA-B*0702 transfected TAP- T2 cells (human)
# method: HLA-B*0702 stabilisation on T2-B*0702 cells, FACS with ME.1 mAb; concentration to reach 20% of maximal fluorescence relative to R10V
# condition.info: scale: ratio of concentrations, tested peptide / R10V reference
Simple rule here: RA (relative affinity) less than 4 is Yes, otherwise No.

>>> label_class("LPLPPLDRL (modifications not checked) [L9RL]")
"No"
>>> label_class("TPKKIKPPL (modifications not checked) [T9PL]")
"Yes"
>>> label_class("RPVVSTQLLL (modifications not checked) [R10LL]")
"Yes"
>>> label_class("HPRISSEVHI (modifications not checked) [H10HI]")
"Yes"
>>> label_class("LPPLDRLTL (modifications not checked) [L9TL]")
"Yes"

Report whether reported RA (relative affinity) is lower than 4 (strictly) for KPPLPSVTKL (modifications not checked) [K10KL] Yes

Threshold test, RA (relative affinity) < 4: QPIQIAIAAL (modifications not checked) [Q10AL] No
